Listed here: items and their measured HEK-Blue activity, +100 nM BP, DF-10000.
study.target: T1, human IL-18 binding protein (human, UniProt O95998 31-194); further: unit not given here
T1 sequence (looked up): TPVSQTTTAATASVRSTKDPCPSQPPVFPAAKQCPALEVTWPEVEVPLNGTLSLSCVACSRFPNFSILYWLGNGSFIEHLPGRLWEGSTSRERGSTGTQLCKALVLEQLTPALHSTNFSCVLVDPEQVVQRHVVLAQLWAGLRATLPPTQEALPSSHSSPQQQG
protocol: cell-based or functional assay

binder	HEK-Blue activity, +100 nM BP, DF-10000
yeast display IL-18 variant K53G, S55V (ligand) YFGKLESKLSVIRNLNDQVLFIDQGNRPLFEDMTDSDMRDNAPRTIFIISMYGDVQPRGMAVTISVKSEKISTLSSENKIISFKEMNPPDNIKDTKSDIIFFQRSVPGHDNKMQFESSSYEGYFLASEKERDLFKLILKKEDELGDRSIMFTVQNED	0.57
yeast display IL-18 variant K53W, S55A (ligand) YFGKLESKLSVIRNLNDQVLFIDQGNRPLFEDMTDSDMRDNAPRTIFIISMYWDAQPRGMAVTISVKSEKISTLSSENKIISFKEMNPPDNIKDTKSDIIFFQRSVPGHDNKMQFESSSYEGYFLASEKERDLFKLILKKEDELGDRSIMFTVQNED	0.31
